TARGET_OR_TEST_SYSTEM: High affinity choline transporter 1 (Homo sapiens)
ASSAY_NAME: human choline transporter blockers, potency – cell-based, 10-point CRC, membrane potential dye, dose response (AID 588401)
DETAILS: HEK293-CHT, choline-induced depolarization, cells express LV-AA mutant CHT
EXPERIMENTAL_READOUT: IC50

// below: answered compounds
COMPOUND: Cc1ccc(NC(=O)c2ccc(CN3CC(=O)N4CCCCC4C3=O)cc2)c(C)c1 (stereo not drawn)
TARGET_OR_TEST_SYSTEM: High affinity choline transporter 1 (Homo sapiens)
DATA_VALUE: 4.47 µM

COMPOUND: CC(C)c1nnc(NC(=O)c2nc(S(=O)(=O)Cc3ccccc3)ncc2Cl)s1
TARGET_OR_TEST_SYSTEM: High affinity choline transporter 1 (Homo sapiens)
DATA_VALUE: 4.47 µM

For the compound `CCCn1nc(NS(=O)(=O)c2cccc3nonc23)c2cc3cccc(C)c3nc21` , what IC50 is on record? 3.55 µM
